- protocol description: Antimigratory activity in mouse B16F10 cells after 24 hrs by fibronectin-coated boyden chamber assay
- Assay type: functional, cell-based
- conditions: b16-f10
quantity name: Ki (nM)
# number only, unit nM dropped from output

QUERY: Need Ki of O=[P@@]1(c2ccccc2)O[C@H](COCc2ccccc2)[C@@H](OCc2ccccc2)[C@H](OCc2ccccc2)[C@@H]1Br , thanks.
RESULT: 46

QUERY: Give the measured Ki of O=[P@@]1(c2ccccc2)O[C@H](COCc2ccccc2)[C@@H](OCc2ccccc2)[C@H](OCc2ccccc2)[C@H]1I .
RESULT: 20

QUERY: If you can, please state the reported Ki value of O=[P@@]1(c2ccccc2)O[C@H](COCc2ccccc2)[C@@H](OCc2ccccc2)[C@H](OCc2ccccc2)[C@H]1F .
RESULT: 22

QUERY: Bench note: what Ki did O=[P@@]1(c2ccccc2)O[C@H](COCc2ccccc2)[C@@H](OCc2ccccc2)[C@H](OCc2ccccc2)[C@@H]1I show?
RESULT: 16

QUERY: I'd like to know its Ki. The compound in question is O=[P@@]1(c2ccccc2)O[C@H](COCc2ccccc2)[C@@H](OCc2ccccc2)[C@H](OCc2ccccc2)[C@@H]1Cl
RESULT: 49

QUERY: Endpoint output: Ki of O=[P@@]1(c2ccccc2)O[C@H](COCc2ccccc2)[C@@H](OCc2ccccc2)[C@H](OCc2ccccc2)[C@H]1Br . Value?
RESULT: 30

QUERY: I would be grateful if you could share the reported Ki for O=[P@@]1(c2ccccc2)O[C@H](COCc2ccccc2)[C@@H](OCc2ccccc2)[C@H](OCc2ccccc2)[C@H]1Cl .
RESULT: 18
